# IC50 annotations
biological target: Nuclear receptor subfamily 1 group D member 1 (Homo sapiens); assay: modulators of Rev-erb alpha DNA binding, dose response, biochemical, FITC-DNA, fluorescence polarization (AID 1259321)
Calls of active or inactive are those of the source.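 Rule for the calls: active = half-maximal concentration for changing protein binding to DNA, from the fitted dose curve, below 10 micromolar; inactive = the rest.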
quantity name: IC50

compound: CCc1nnc(NC(=O)CSc2nc3cc4c(cc3cc2C)OCCO4)s1
system name: Nuclear receptor subfamily 1 group D member 1 (Homo sapiens)
assay value: 7.62 µM

compound: CCN1C(=O)/C(=C\N2CCN(c3ccc(F)cc3)CC2)SC1=S
system name: Nuclear receptor subfamily 1 group D member 1 (Homo sapiens)
assay value: > 40 µM (inactive)

compound: O=C(CSc1ncnc2c1oc1ccccc12)Nc1cccc(Cl)c1
system name: Nuclear receptor subfamily 1 group D member 1 (Homo sapiens)
assay value: 4.59 µM

compound: CC(NC(=O)c1ccc(-c2cc(C(F)(F)F)ccc2Cl)o1)c1ccccc1 (stereo unspecified)
system name: Nuclear receptor subfamily 1 group D member 1 (Homo sapiens)
assay value: > 40 µM (inactive)

compound: CCc1cc2ccc(OC)cc2nc1SCC(=O)Nc1cc(C)on1
system name: Nuclear receptor subfamily 1 group D member 1 (Homo sapiens)
assay value: > 40 µM (inactive)

compound: COC(=O)c1cccc(Cn2ccc3ccc(-c4ccc5ccn(C(=O)C6CCCCC6)c5c4)cc32)c1
system name: Nuclear receptor subfamily 1 group D member 1 (Homo sapiens)
assay value: 7.14 µM
